- target or test system: FGFR3 (Homo sapiens)
- Construct: purchased Eurofins Pharma Discovery Services (KinaseProfiler; Cerep BioPrint panel)
- Sequence (P22607 23-806): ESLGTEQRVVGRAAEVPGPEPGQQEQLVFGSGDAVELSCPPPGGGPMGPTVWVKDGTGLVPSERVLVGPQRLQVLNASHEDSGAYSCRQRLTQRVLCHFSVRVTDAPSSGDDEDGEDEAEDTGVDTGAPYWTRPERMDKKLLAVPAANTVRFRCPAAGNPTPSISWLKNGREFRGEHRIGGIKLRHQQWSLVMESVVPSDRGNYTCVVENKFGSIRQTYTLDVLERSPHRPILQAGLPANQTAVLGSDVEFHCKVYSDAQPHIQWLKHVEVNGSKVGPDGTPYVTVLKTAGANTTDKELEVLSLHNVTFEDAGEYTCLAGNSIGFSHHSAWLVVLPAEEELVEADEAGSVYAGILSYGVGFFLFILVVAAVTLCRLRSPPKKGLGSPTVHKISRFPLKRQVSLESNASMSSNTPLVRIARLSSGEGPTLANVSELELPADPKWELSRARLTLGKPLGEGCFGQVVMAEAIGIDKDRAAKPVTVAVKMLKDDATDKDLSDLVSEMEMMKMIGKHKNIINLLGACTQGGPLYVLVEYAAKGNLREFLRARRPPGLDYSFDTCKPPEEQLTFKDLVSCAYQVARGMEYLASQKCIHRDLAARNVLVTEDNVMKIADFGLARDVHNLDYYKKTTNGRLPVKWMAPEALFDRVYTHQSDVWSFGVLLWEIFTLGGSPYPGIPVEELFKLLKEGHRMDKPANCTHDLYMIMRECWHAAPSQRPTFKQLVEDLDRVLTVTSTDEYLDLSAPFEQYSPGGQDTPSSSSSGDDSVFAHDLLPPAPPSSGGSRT
- protocol: kinase selectivity panel
- Type: biochemical
- assay conditions: read-out: percentage of control activity (POC), FGFR3
Flag rule - remaining activity at 10 µM less than 90% flags rule met; the remaining entries get rule not met.

compound	assigned category
CS(=O)(=O)N1CCN(c2ccc(Nc3ncc(C(N)=O)c(NC4CC4)n3)cc2)CC1 [compound 5]	rule met
CC(C)(C)N1CCC(c2cc(-c3ccc(F)cc3Cl)c3cc[n+]([O-])c(-c4c(Cl)cccc4Cl)c3n2)CC1 [compound 2]	rule not met

Could you now consider this next compound?
Problem: Confirm or reject: remaining activity at 10 µM of COc1c(NC(=O)c2ccc(C)c(-c3nnc4c(NCC(C)(C)C)nccn34)c2)cc(C(C)(C)C)cc1NS(C)(=O)=O [compound 7, reference compound] lies strictly below 90%
Result: rule not met

* * *

- target or test system: MAPK2 (Homo sapiens, UniProt P28482)
- Construct: purchased Eurofins Pharma Discovery Services (KinaseProfiler; Cerep BioPrint panel)
- Sequence (P28482 whole entry): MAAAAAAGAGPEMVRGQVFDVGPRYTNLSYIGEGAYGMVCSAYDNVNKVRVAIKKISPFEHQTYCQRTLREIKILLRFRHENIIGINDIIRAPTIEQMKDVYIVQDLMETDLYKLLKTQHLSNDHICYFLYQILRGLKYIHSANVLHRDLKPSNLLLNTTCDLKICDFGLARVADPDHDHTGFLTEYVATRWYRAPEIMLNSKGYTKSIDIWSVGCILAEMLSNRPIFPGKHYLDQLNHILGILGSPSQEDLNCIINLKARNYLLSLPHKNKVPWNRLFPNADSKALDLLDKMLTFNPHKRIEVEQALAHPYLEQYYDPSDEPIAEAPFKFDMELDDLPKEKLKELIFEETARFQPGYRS
- protocol: kinase selectivity panel
- Assay type: biochemical
- assay conditions: read-out: percentage of control activity (POC), MAPK2
remaining activity at 10 µM for assorted compounds
# include the unit after the value

compound	target or test system	property name	reported measurement
CC(C)(C)N1CCC(c2cc(-c3ccc(F)cc3Cl)c3cc[n+]([O-])c(-c4c(Cl)cccc4Cl)c3n2)CC1	MAPK2 (Homo sapiens, UniProt P28482)	remaining activity at 10 µM	105%
Cn1cc(-c2cccc(-c3nc(C(=O)NC4C5CC6CC4CC(O)(C6)C5)c(N)nc3N)c2)cn1 (centres unmarked)	MAPK2 (Homo sapiens, UniProt P28482)	remaining activity at 10 µM	97%
CS(=O)(=O)N1CCN(c2ccc(Nc3ncc(C(N)=O)c(NC4CC4)n3)cc2)CC1	MAPK2 (Homo sapiens, UniProt P28482)	remaining activity at 10 µM	49%
COc1c(NC(=O)c2ccc(C)c(-c3nnc4c(NCC(C)(C)C)nccn34)c2)cc(C(C)(C)C)cc1NS(C)(=O)=O [compound 7, reference compound]	MAPK2 (Homo sapiens, UniProt P28482)	remaining activity at 10 µM	99%

# evaluate next
Problem: API: value(readout=remaining activity at 10 µM, system=MAPK2 (Homo sapiens, UniProt P28482)) for record Cc1ccc(C(=O)NCC2CC2)cc1-c1ccc2c(c1)NC(=O)C21CCCC1
Result: 97%

* * *

- target or test system: JAK1 (Homo sapiens, UniProt P23458)
- Construct: purchased Eurofins Pharma Discovery Services (KinaseProfiler; Cerep BioPrint panel)
- Sequence (P23458 whole entry): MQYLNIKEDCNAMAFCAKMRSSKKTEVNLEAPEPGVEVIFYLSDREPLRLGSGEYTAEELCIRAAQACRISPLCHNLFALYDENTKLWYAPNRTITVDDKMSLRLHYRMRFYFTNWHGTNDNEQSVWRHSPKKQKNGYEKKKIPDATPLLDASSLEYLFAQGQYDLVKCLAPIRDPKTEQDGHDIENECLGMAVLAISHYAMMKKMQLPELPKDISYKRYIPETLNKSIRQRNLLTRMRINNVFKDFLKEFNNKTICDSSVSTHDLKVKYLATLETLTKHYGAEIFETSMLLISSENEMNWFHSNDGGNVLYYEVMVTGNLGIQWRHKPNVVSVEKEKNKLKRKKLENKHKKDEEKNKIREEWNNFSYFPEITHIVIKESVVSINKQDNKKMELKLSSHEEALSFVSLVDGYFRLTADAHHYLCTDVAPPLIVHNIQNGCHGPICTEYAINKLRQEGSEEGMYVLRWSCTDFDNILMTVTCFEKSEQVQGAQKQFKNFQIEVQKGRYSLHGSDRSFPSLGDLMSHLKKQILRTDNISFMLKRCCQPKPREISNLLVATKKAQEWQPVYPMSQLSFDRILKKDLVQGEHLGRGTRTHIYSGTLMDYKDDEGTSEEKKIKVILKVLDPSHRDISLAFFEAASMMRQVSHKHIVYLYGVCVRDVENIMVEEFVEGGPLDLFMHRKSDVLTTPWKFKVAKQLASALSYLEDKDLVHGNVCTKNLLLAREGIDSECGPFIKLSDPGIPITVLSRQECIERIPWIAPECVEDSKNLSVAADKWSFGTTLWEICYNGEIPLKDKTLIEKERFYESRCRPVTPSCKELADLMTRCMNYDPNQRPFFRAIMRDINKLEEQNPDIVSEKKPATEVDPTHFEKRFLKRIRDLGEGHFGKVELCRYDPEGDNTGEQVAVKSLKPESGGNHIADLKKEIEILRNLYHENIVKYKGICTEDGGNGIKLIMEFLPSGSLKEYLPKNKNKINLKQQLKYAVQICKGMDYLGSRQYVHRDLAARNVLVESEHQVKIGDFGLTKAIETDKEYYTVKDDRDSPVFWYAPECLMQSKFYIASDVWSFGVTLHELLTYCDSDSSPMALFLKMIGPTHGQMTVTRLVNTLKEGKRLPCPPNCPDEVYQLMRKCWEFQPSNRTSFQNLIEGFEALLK
- protocol: kinase selectivity panel
- Type: biochemical
- assay conditions: read-out: percentage of control activity (POC), JAK1
remaining activity at 10 µM for assorted molecules
The figure you give is taken to be in %; do not add the unit.

Recorded results for 4 molecules are shown here.
molecule	reported measurement
Cc1ccc(C(=O)NCC2CC2)cc1-c1ccc2c(c1)NC(=O)C21CCCC1 [compound 3]	93
CS(=O)(=O)N1CCN(c2ccc(Nc3ncc(C(N)=O)c(NC4CC4)n3)cc2)CC1 [compound 5]	-2
COc1c(NC(=O)c2ccc(C)c(-c3nnc4c(NCC(C)(C)C)nccn34)c2)cc(C(C)(C)C)cc1NS(C)(=O)=O [compound 7, reference compound]	101
Cn1cc(-c2cccc(-c3nc(C(=O)NC4C5CC6CC4CC(O)(C6)C5)c(N)nc3N)c2)cn1 (centres unmarked) [compound 4]	86

Problem: API: value(readout=remaining activity at 10 µM, system=JAK1 (Homo sapiens, UniProt P23458)) for record CC(C)(C)N1CCC(c2cc(-c3ccc(F)cc3Cl)c3cc[n+]([O-])c(-c4c(Cl)cccc4Cl)c3n2)CC1 [compound 2]
Result: 91
